testedOn: hSSB1 (Homo sapiens, UniProt Q9BQ15 Q9BQ15:1-211)
Sequence (Q9BQ15 whole entry, one chain of several): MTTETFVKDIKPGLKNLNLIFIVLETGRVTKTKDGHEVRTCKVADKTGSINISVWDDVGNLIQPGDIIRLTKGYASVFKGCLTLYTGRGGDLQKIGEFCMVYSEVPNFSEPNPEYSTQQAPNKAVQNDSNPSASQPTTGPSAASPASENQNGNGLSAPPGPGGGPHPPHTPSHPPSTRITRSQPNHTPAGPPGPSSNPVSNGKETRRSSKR
assayInfo: SPR
Exercise: for every item that follows, state its recorded binding signal.

Qu. Identify the reported binding signal for the following entry. ACAUCGUUACCAGACAGUGUUA (ssRNA, 2'-OMe all, full PS) [DKLS687764 (SEQ 34)]
Ans. 1.47 normalized Rmax

Qu. Identify the reported binding signal for the following entry. UCUUAUGUUUCCGAACCGUU (ssRNA, 2'-OMe all, full PS) [DKLS370480 (SEQ 25)]
Ans. 0.69 normalized Rmax

Qu. Identify the reported binding signal for the following entry. UUGACAGAUUAAGUCCAUUC (ssRNA, 2'-OMe all, full PS) [DKLS675388 (SEQ 51)]
Ans. 0.89 normalized Rmax

Qu. Identify the reported binding signal for the following entry. UGCUAUCUUAUCACCUUUAG (ssRNA, 2'-OMe all, full PS) [DKLS331584 (SEQ 26)]
Ans. 0.48 normalized Rmax
